# inhibition at 10 µM per record follows
# target: PI3Kγ (Homo sapiens, UniProt P48736)
# Sequence (P48736 whole entry, species assumed): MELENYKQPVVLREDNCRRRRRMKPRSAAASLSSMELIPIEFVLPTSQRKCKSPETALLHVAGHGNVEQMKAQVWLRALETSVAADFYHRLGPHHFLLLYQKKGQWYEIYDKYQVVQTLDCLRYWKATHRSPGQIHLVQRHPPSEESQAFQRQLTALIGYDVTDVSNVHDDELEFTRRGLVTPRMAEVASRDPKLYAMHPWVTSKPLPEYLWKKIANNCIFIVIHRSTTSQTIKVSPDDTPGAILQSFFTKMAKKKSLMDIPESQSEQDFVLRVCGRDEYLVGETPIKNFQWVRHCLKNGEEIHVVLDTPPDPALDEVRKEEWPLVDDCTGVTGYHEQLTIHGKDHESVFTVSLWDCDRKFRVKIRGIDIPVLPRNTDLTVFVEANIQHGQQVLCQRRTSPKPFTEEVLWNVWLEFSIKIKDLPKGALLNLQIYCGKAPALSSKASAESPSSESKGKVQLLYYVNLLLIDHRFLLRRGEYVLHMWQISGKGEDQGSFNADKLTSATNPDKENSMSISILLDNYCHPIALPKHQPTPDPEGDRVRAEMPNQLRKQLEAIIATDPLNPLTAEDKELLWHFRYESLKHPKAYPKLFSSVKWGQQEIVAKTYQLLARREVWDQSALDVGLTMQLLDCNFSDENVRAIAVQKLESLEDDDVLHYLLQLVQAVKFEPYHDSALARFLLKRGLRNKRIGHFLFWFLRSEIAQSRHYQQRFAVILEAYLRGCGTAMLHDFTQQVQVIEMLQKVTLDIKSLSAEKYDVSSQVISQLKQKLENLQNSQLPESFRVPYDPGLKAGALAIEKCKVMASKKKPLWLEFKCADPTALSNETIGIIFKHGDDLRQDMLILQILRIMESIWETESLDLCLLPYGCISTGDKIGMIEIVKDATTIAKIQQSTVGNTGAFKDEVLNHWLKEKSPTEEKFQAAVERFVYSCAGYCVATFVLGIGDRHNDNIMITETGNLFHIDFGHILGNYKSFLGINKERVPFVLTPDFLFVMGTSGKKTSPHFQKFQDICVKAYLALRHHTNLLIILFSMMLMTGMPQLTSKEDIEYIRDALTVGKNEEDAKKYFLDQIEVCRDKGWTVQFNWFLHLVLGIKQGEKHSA
# assayProcedure: PI3Kγ inhibitory activity (PI3-kinase HTRF assay, inhibition ratio)
# Type: biochemical
# testConditions: 0.5 h, compound at 10 μmol/L; read-out: PI3Kg Inhibition Ratio % (10 μM)

Query: Query the reported inhibition at 10 µM for PI3Kγ (Homo sapiens, UniProt P48736); item: "CC(C)NC(=O)c1ccccc1NC(=O)Nc1nc2c(s1)CN(c1cncc(C#N)c1)CC2"
Reply: 80%

Query: Repeat with "COc1cc(N2CCc3nc(NC(=O)Nc4ccccc4C(=O)NC(C)C)sc3C2)cc(OC)n1"
Reply: ≥ 95%

Query: Now give it for "COc1cc(N2CCc3nc(NC(=O)Nc4cnccc4C(=O)NC(C)(C)C)sc3C2)nc(OC)n1" too.
Reply: ≥ 95%

---
Query: Kindly state the measured inhibition at 10 µM obtained for "CS(=O)(=O)c1cccc(N2CCc3nc(NC(=O)Nc4ccccc4C(=O)NCC#N)sc3C2)c1" with PI3Kγ (Homo sapiens, UniProt P48736).
Reply: ≥ 95%

Query: Repeat with "COc1cc(N2CCc3nc(NC(=O)Nc4ccccc4C(=O)NC(C)(C)C#N)sc3C2)nc(OC)n1"
Reply: ≥ 95%

Query: Input "CC(=O)c1cccc(-c2ccc3nc(NC(=O)Nc4ccccc4OCCC(C)C)sc3c2)c1"
Reply: ≥ 95%

Query: Would you mind doing "COc1cc(N2CCc3nc(NC(=O)Nc4cccnc4C(=O)NC(C)(C)C)sc3C2)nc(OC)n1" as well?
Reply: ≥ 95%

Query: What do you have for "COc1cc(N2CCc3nc(NC(=O)Nc4ccccc4C(=O)NCCC#N)sc3C2)nc(OC)n1" ?
Reply: ≥ 95%

----------
# target: PI3Kγ (Homo sapiens, UniProt P48736)
# assayProcedure: PI3Kγ inhibitory activity (PI3-kinase HTRF assay, inhibition ratio)
# Assay type: biochemical
# testConditions: 0.5 h, compound at 10 μmol/L; read-out: PI3Kg Inhibition Ratio % (10 μM)
# Description: For each compound synthesized in the above Examples, PI3Kγ inhibitory activity was measured. The PI3Kγ inhibitory activity of a compound was evaluated using PI3-kinase HTRF™ assay (Millipore) according to the following procedure: […] 5 μL of a detection reagent containing a europium-labeled anti-GST antibody, the GST-tagged PH domain, and allophycocyanin-labeled streptavidin was added thereto. After 18 hours, HTRF (excitation wavelength: 330 nm, measured wavelengths: 620 nm and 665 nm) was measured. […]
outcomeMeasure: inhibition at 10 µM

The cases that follow already have their inhibition at 10 µM on record.
Query: Field request: inhibition at 10 µM | item: "CC(=O)c1cccc(-c2cc(NC(=O)Nc3ccccc3C(=O)NC(C)C)nn2C)c1"
Reply: 87%

Query: Can you handle "COc1cncc(-c2cc(NC(=O)Nc3ccccc3OCCC(C)C)nn2C)c1" next?
Reply: ≥ 95%

Query: Would you kindly repeat that for CC(CO)NC(=O)c1ccccc1NC(=O)Nc1nc2c(s1)CN(c1ccc(F)c(F)c1)CC2 (stereo not drawn) ?
Reply: ≥ 95%

Query: Next compound up: "CNS(=O)(=O)c1cncc(N2CCc3nc(NC(=O)Nc4ccccc4C(=O)NC(C)C)sc3C2)c1"
Reply: ≥ 95%

Query: Check COc1cc(N2CCc3nc(NC(=O)Nc4ccccc4C(=O)NC4CCCOC4)sc3C2)nc(OC)n1 (stereo not drawn) too.
Reply: ≥ 95%

Others:
Query: inhibition at 10 µM for "COc1cncc(-c2ccc3nc(NC(=O)Nc4ccccc4OCCC(C)C)sc3n2)c1" ?
Reply: ≥ 95%

Query: Note, next up: "COc1cc(N2CCc3nc(NC(=O)Nc4cn(C)nc4C(=O)NCC#N)sc3C2)nc(OC)n1"
Reply: ≥ 95%

Query: Try this compound next: "CO/N=C(\C)c1ccccc1NC(=O)Nc1nc2c(s1)CN(c1cc(OC)nc(OC)n1)CC2"
Reply: 83%

Query: Also, "CC(C)NC(=O)c1ccccc1NC(=O)Nc1nc2c(s1)CN(c1cncc(C(F)(F)F)c1)CC2" please.
Reply: 78%

Query: For "COc1cc(N2CCc3nc(NC(=O)Nc4cccnc4C(=O)N(C)C(C)C)sc3C2)nc(OC)n1" then?
Reply: ≥ 95%

Query: Consider next the compound "COc1cc(N2CCc3nc(NC(=O)Nc4ccccc4C(N)=O)sc3C2)nc(OC)n1" in the same way.
Reply: ≥ 95%

Query: Query "Cc1nc(NC(=O)Nc2ccccc2C(=O)NC(C)C)sc1-c1csc(S(=O)(=O)N2CCC(O)CC2)c1" next
Reply: 77%

Query: Now give it for COc1cc(N2CCc3nc(NC(=O)Nc4ccccc4C(O)CC(C)C)sc3C2)nc(OC)n1 (stereo not drawn) too.
Reply: ≥ 95%

Query: What would you report for "[2H]C([2H])([2H])C([2H])(NC(=O)c1ccccc1NC(=O)Nc1nc2c(s1)CN(c1cc(OC)nc(OC)n1)CC2)C([2H])([2H])[2H]" ?
Reply: ≥ 95%

Query: Another compound to check: "COc1ccc(-c2ccc3nc(NC(=O)Nc4ccccc4OCCC(C)C)sc3n2)cn1"
Reply: ≥ 95%

----------
# target: PI3Kδ (Homo sapiens)
# Sequence (O00329 whole entry, species assumed): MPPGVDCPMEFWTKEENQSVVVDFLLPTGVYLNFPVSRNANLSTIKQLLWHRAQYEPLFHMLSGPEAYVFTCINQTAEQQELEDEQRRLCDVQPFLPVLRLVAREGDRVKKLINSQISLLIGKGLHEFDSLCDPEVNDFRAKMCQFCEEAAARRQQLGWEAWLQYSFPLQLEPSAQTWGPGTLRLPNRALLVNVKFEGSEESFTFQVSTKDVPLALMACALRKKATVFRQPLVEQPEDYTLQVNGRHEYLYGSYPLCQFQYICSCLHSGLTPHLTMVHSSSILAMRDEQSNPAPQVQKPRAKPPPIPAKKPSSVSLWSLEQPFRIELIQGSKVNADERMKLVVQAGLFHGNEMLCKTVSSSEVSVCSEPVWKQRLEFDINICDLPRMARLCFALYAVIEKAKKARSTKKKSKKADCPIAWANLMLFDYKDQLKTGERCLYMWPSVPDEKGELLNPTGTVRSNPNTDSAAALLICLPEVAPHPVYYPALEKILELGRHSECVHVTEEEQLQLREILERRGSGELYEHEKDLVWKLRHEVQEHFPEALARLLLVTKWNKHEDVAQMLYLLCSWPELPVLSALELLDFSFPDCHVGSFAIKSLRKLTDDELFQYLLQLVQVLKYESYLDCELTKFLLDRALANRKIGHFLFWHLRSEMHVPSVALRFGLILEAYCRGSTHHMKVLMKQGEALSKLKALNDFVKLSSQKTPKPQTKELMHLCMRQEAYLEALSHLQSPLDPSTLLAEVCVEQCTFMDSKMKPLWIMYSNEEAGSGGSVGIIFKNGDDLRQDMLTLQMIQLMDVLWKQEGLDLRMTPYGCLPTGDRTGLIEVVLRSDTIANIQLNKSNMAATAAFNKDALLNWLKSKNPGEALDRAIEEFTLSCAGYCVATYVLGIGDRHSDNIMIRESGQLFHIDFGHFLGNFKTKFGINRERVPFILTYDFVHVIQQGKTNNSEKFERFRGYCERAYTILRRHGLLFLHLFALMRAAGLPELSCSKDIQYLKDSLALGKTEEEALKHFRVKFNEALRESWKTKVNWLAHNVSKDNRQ
# Sequence (P27986 whole entry partner, species assumed): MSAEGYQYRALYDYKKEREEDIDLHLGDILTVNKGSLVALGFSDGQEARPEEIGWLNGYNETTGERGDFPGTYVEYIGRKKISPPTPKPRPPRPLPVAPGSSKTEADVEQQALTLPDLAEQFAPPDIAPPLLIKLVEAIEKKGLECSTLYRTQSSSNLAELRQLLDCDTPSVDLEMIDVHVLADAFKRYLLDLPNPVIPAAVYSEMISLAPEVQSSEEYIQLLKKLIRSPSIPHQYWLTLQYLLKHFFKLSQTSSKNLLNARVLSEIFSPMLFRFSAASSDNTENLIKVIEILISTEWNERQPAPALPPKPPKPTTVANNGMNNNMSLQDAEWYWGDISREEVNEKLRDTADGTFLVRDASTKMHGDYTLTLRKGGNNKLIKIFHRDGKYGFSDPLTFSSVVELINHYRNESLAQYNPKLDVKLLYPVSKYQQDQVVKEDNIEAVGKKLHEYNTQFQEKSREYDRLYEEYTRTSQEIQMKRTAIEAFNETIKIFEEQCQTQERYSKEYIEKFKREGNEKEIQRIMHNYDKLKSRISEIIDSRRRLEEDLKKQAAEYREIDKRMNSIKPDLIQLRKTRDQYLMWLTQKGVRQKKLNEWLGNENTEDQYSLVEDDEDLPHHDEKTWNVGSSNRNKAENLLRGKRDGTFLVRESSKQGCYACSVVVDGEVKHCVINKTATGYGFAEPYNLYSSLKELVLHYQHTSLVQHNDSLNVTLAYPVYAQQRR
# assayProcedure: PI3Kδ inhibitory activity (Ki value)
# Format: biochemical
# testConditions: class symbols; read-out: PI3K δ Ki
outcomeMeasure: Ki

Solved cases (3 shown):
Query: Please report the recorded Ki for COc1nc(Cl)cc(N2CCc3nc(NC(=O)Nc4ccccc4C(=O)NC4CCCOC4)sc3C2)n1 (centres unmarked) .
Reply: > 3 µM

Query: Do the same for "COc1cncc(-c2ccc3nc(NC(=O)Nc4ccccc4OCCC(C)C)sc3n2)c1" please
Reply: > 3 µM

Query: Same question, "COc1cc(-c2ccc3nc(NC(=O)Nc4ccccc4OCCC(C)C)sc3c2)nc(OC)n1" this time
Reply: > 3 µM

More entries:
Query: Looking for the measured Ki of "COc1cccc(-c2ccc3nc(NC(=O)Nc4ccccc4C(=O)NC(C)C)cn3n2)c1" , can you help?
Reply: ≤ 0.3 µM

Query: Next entry: COc1cc(C2(F)CCc3nc(NC(=O)Nc4ccccc4C(=O)NC(C)C)sc3C2)nc(OC)n1 (centres unmarked)
Reply: > 3 µM

Query: Can you check COc1nc(Cl)cc(N2CCc3nc(NC(=O)Nc4ccccc4C(=O)NC4CCCC4O)sc3C2)n1 (centres unmarked) next?
Reply: ≤ 3 µM

Query: // query: "COc1nc(Cl)cc(N2CCc3nc(NC(=O)Nc4cnccc4C(=O)NC(C)C)sc3C2)n1"
Reply: ≤ 3 µM

Query: Please give the result for "Cc1nc(NC(=O)Nc2ccccc2C(=O)NC(C)C)sc1-c1ccc(S(C)(=O)=O)c(F)c1" too.
Reply: ≤ 0.3 µM

Query: Same read-out for "COc1cncc(-c2ccc3nc(NC(=O)Nc4ccccc4OCCC(C)C)cn3n2)c1" ?
Reply: ≤ 3 µM

Query: Try the compound "COc1cncc(-c2ccc3nc(NC(=O)Nc4ccccc4OCCC(C)C)nn3c2)c1"
Reply: > 3 µM

Query: Next entry: "COc1cc(N2CCc3nc(NC(=O)Nc4ccccc4C4=NC(C)(C)CO4)sc3C2)nc(OC)n1"
Reply: > 3 µM

----------
# target: PI3Kγ (Homo sapiens)
# assayProcedure: PI3Kγ inhibitory activity (PI3-kinase HTRF assay, inhibition ratio)
# Type: biochemical
# testConditions: 0.5 h, compound at 10 μmol/L; read-out: PI3Kg Inhibition Ratio % (10 μM)
Below is a list of entries, each paired with its recorded inhibition at 10 µM value.

Query: Quick one: inhibition at 10 µM of CCNC(=O)c1ccncc1NC(=O)Nc1nc2c(s1)CN(c1cnc(OC)c(OC)c1)CC2 [Compound I-103] ?
Reply: ≥ 95%

Query: Please answer likewise for Cc1cc(N2CCc3nc(NC(=O)Nc4ccccc4C(=O)NC(C)C)sc3C2)nc(C#N)n1 [Compound I-181]
Reply: 79%

Query: Then what about the compound COc1ccc(-c2ccc3nc(NC(=O)Nc4ccccc4OCCC(C)C)sc3c2)cn1 [Compound I-215] ?
Reply: ≥ 95%

Query: Similarly, COc1cc(N2CCc3nc(NC(=O)Nc4ccccc4C(=O)NC4CCCC4O)sc3C2)nc(OC)n1 (centres unmarked) [Compound I-134] ?
Reply: ≥ 95%

Query: Then COC(=O)c1ccccc1NC(=O)Nc1nc2c(s1)CN(c1cc(OC)nc(OC)n1)CC2 [Compound I-6] ?
Reply: ≥ 95%

----------
# assayProcedure: Metabolic stability test (pooled human liver microsome)
# Format: in vitro ADME
# testConditions: percentage of test compound remained after 30 minutes, pooled human liver microsome 0.5 mg protein/mL, 1 mmol/L NADPH, 37° C., compound 0.5 μM
outcomeMeasure: hLMS_ox(at 0.5 μM) % (%)

Query: Please look up its hLMS_ox(at 0.5 μM) %: "O=C(Nc1nc2c(s1)CN(c1ccnc(Cl)n1)CC2)Nc1ccccc1C(=O)NCCO"
Reply: 90.6

Query: Another: "COc1cc(N2CCc3nc(NC(=O)Nc4ccccc4C(=O)NCC(C)(C)O)sc3C2)nc(OC)n1"
Reply: 99

Query: Repeat for the following compound: "COc1cc(N2CCc3nc(NC(=O)Nc4ccccc4C(=O)NN4CCOCC4)sc3C2)nc(OC)n1"
Reply: 91.2

Query: What about CC(CO)NC(=O)c1ccccc1NC(=O)Nc1nc2c(s1)CN(c1cccc(F)c1)CC2 (centres unmarked) ?
Reply: 84.7

Query: "Cc1cc(N2CCc3nc(NC(=O)Nc4ccccc4C(=O)N[C@H](C)CO)sc3C2)nc(C#N)n1" ?
Reply: 87.6

Query: Consider next the compound COc1cc(C2CCc3nc(NC(=O)Nc4ccccc4C(=O)NC(C)C)sc3C2)nc(OC)n1 (centres unmarked) in the same way.
Reply: 81.9

Query: Record: CC(CO)NC(=O)c1ccccc1NC(=O)Nc1nc2c(s1)CN(c1ccc(F)cn1)CC2 (centres unmarked)
Reply: 92.3

Query: Request: "COc1cc(N2CCc3nc(NC(=O)Nc4ccccc4C(=O)N[C@H](C)CO)sc3C2)nc(OC)n1"
Reply: 84.2

Just for reference, patent US20120071475A1 is where these values come from.
